B1: Subtilisin inhibitor, P01006 (parent)
chain: MRNTGAGPSPSVSRPPPSAAPLSGAALAAPGDAPSALYAPSALVLTVGKGVSATTAAPERAVTLTCAPGPSGTHPAAGSACADLAAVGGDLNALTRGEDVMCPMVYDPVLLTVDGVWQGKRVSYERVFSNECEMNAHGSSVFAF

Variants of: B1
Details: Streptomyces albogriseolus; pH 7; Thermal; DSC; Sodium phosphate 25 mM; reversible: yes; structure 3SSI; whole UniProt chain shown
recorded.metric: Tm (°C)

M134V
78.6
M134I
78.3
M134L
82.5
M134G
68.6
